The values you see were collected from patent US20080161365A1.

Entries below carry reported pIC50 on MMP-12 catalytic domain (Homo sapiens, UniProt P39900).
Sequence (P39900 106-263 limits assumed, species assumed): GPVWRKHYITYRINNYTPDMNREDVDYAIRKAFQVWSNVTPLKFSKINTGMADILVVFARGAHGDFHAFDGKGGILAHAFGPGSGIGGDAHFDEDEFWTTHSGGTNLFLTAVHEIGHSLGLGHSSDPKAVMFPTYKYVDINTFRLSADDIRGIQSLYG
pIC50: −log10 of the molar value.

Field: example entries. Status: answers known.
# Cc1cc(C(O)CCc2ccc(C(=O)O)cc2)cc(C(=O)NCc2cccc(C(F)(F)F)c2)n1 (stereo not drawn) with MMP-12 catalytic domain (Homo sapiens, UniProt P39900): pIC50 is < 4.00

# Cc1cc(C(F)CCc2ccc(C(=O)O)cc2)cc(C(=O)NCc2cccc(C(F)(F)F)c2)n1 (stereo not drawn) with MMP-12 catalytic domain (Homo sapiens, UniProt P39900): pIC50 is < 4.00

# ---- query compound ----
# Cc1cc(C(F)(F)CCc2ccc(C(=O)O)cc2)cc(C(=O)NCc2cccc(C(F)(F)F)c2)n1.O=C(O)C(F)(F)F [Example 2, monotrifluoroacetic acid salt] with MMP-12 catalytic domain (Homo sapiens, UniProt P39900): pIC50 is < 4.00
